Item-by-item account of melting point

Below, 5 molecules whose answers are already recorded.
Cc1ccc(N(C(=O)CCCl)C2C=CS(=O)(=O)C2)cc1C (stereo unspecified) = 122 to 124 °C
Cc1ccc(S(N)(=O)=O)cc1N(C)C = 126 to 128 °C
COC(=O)c1nc(Cl)ccc1S(=O)(=O)Cl = 143 to 145 °C
COC(=O)c1ccc2nnn(O)c2c1 = 166 to 168 °C
N=C(N)Nc1nc2ccccc2[nH]1 = 242 to 244 °C

GET /value?item= CC(C)NC(=O)NC(=O)CCl &field=melting point returns 86 to 88 °C

For reference, reported melting point for CC(C)c1nc(CC(=O)O)cs1 stands at 87 to 89 °C

melting point measured on OCC1CNC(c2ccccc2)=NO1 (stereo unspecified) = 149 to 151 °C

// melting point lookup, molecule = CCOc1ccc2oc(C(=O)O)c(C)c2c1 , result: 155 to 165 °C

melting point measured on O=c1n(CCO)nc2ccccn12 = 134 to 136 °C

Lab note: O=c1[nH]cnc2sc3c(c12)CCCCC3 gave melting point of 107 to 109 °C

melting point for CC(C)n1ncc2c(C(=O)O)cc(C3CC3)nc21 is 144 to 146 °C

Given item Nc1cc(-c2ccc(I)cc2)no1 , the value recorded as its melting point is 159 to 161 °C

Record summary for CC(C)(C)OC(=O)NC12CCC(C(=O)O)(C1)C2 : reported melting point = 169 to 171 °C

Nc1ccc2[nH]c(-c3ccccn3)nc2c1 has a reported melting point of 189 to 191 °C

The measured melting point associated with Brc1ccccc1-c1ncno1 reads 35 to 37 °C

Recorded result, Cc1cc(Oc2ccc(N)cc2)n[nH]1 , melting point: 189 to 191 °C

# melting point (molecule: Cc1cccc2nc(CCl)cc(=O)n12 ) is 120 to 122 °C

The reported value for O=C(O)Cc1csc(-c2ccccn2)n1 in terms of melting point is 140 to 147 °C

Record CC(=O)c1ccc(NS(=O)(=O)c2ccc(C)cc2)cc1 . Reported melting point: 170 to 172 °C

For this molecule ( CCS(=O)(=O)c1cccc(C(=O)O)c1 ), measured melting point is 160 to 162 °C

# melting point of CC(=O)c1cccc(S(=O)(=O)NCCC(=O)O)c1 = 106 to 110 °C

###

outcome.measure: melting point

Record CC(C(=O)O)c1ccc(S(C)(=O)=O)cc1 (centres undefined) , field melting point: 91 to 93 °C

Memo: CN1CC(N)C(=O)N1 (centres undefined) , reported melting point: 55 to 57 °C

response.value for C#CCn1cnc(-c2ccccc2)c1N (field: melting point) = 126 to 128 °C

###

outcome.measure: melting point

COc1cccc(-c2nn(-c3ccc(C)cc3)cc2C(=O)O)c1 = 162 to 164 °C

Note to self: melting point recorded for Cc1ccc(C)c(N2N=C(C(=O)O)CCC2=O)c1 was 149 to 151 °C

###

outcome.measure: melting point

O=C(O)c1c[nH]nn1 = 212 to 214 °C

melting point recorded for this compound, O=C(O)CCCNc1ccc([N+](=O)[O-])cc1 , is 158 to 160 °C

For reference, reported melting point for CNS(=O)(=O)C1CCNCC1 stands at 168 to 170 °C
